# Subject Of Test: HDAC6 (Homo sapiens, UniProt Q9UBN7)
# Sequence (Q9UBN7 whole entry): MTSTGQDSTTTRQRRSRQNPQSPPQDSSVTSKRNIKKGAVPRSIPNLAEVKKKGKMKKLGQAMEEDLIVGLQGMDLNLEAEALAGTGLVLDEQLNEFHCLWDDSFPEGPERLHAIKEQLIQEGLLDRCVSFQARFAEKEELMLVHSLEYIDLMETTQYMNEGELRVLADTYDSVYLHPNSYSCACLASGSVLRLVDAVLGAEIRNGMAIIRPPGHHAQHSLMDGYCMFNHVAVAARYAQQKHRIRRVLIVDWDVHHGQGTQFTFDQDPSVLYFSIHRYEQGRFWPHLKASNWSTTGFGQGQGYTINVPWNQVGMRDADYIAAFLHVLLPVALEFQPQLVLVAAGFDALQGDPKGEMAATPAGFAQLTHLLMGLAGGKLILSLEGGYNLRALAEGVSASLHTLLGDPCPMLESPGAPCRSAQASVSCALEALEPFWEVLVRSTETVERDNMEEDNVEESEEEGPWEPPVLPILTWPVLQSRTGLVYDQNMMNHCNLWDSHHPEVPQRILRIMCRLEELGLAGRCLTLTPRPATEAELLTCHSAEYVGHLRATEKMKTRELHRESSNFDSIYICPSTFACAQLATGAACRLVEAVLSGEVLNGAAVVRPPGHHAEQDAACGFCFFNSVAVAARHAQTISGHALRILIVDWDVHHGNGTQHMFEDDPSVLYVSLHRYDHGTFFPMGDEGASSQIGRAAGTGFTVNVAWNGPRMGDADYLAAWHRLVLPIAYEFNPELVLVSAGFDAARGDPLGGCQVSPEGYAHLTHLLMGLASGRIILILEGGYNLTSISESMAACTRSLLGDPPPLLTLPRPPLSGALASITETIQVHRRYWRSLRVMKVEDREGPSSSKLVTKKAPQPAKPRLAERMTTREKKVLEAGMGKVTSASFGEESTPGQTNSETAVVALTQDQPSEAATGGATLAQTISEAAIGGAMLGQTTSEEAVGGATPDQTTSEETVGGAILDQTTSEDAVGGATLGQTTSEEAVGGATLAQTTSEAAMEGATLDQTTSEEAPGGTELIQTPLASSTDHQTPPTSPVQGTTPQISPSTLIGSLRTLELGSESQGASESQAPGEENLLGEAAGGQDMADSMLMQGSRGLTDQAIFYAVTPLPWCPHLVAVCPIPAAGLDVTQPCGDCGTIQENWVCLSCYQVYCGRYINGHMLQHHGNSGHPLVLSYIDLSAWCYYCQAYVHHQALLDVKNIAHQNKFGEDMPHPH
pIC50: −log10 of the molar value.
Measurement Kind: pIC50

Prompt: Look up and report measured pIC50 for this entry: Nc1nonc1-n1cc(C(=O)N/N=C/c2cc(Cl)cc(C(F)(F)F)c2)nn1 [JYQ-42]
Response: < 4.00
